All figures here come from ChEMBL document CHEMBL3988442.

test system: Trypanosoma brucei; experiment: Trypanosoma brucei 72 hour study; type: functional, organism-based; design: scale not given: in the data most compounds retested in dose-response had high values; details: 30 µM; 30.03 µM
Screen size: about 66,000 compounds; about 960 (1.5%) showed an effect of 50% or more. This excerpt belongs to a sample that is enriched for strong results.
# Lookup of reported Percent Effect keyed by entry
Only the number, expressed in %, is required.

For record Cc1ccc(O[C@@H]2C[C@H]3CN(C(=O)c4cccnc4)CCN3C2)cc1.O=C(O)C(F)(F)F.O=C(O)C(F)(F)F the listed Percent Effect is 12.8

For record O=C(c1csc2nc(-c3ccc(Cl)cc3)cn12)N1CCCC(CO)C1 (stereo unspecified) the listed Percent Effect is -27.9

For record COc1cccc2c1OCC(C(=O)NCCc1nc3c(s1)CCC3)C2 (stereo unspecified) the listed Percent Effect is -23.46

For record Cc1cc(N2CCC(N(C)C(=O)c3ccccc3F)CC2)nc(C)n1 the listed Percent Effect is -12.35

For record Cc1cc(NC(C)c2n[nH]c(C)n2)n2nc(C)c(C)c2n1 (stereo unspecified) the listed Percent Effect is -65.68

For record CC(C)Cc1ncc2c(n1)CN(c1nccc(NC(C)C)n1)C2 the listed Percent Effect is 89.54

For record Cc1ccc(C)c(NC(=O)N2C[C@H](N(C)C)C[C@H]2CO)c1 the listed Percent Effect is -61.25

For record Cc1cccc(CN2CCOCC3(CCN(C4CCOCC4)C3)C2)c1.O=C(O)C(F)(F)F.O=C(O)C(F)(F)F (stereo unspecified) the listed Percent Effect is 52.28

Turning now to a further molecule:
For record Cc1nc(CN2C(=O)CC[C@@H]3[C@H]2CCN3C2CCOCC2)cs1.O=C(O)C(F)(F)F the listed Percent Effect is -42.08

* * *

tested on: Trypanosoma brucei; assay: Trypanosoma brucei 72 hour study; type: functional, organism-based; set-up: scale not given: in the data most compounds retested in dose-response had high values; conditions: 30.3 µM; […]
Among all 66,000 compounds or so, about 960 (1.5%) showed an effect of 50% or more. Many of the other results were omitted from the sample, so strong results are more common in it than they were.
recorded_metric: Percent Effect (%)
Only the number, expressed in %, is required.

Here's what some known entries look like.
Assay Trypanosoma brucei, sample CS(=O)(=O)NCc1cncc2c1CCN(C(=O)c1cccnc1)C2.Cl.Cl , Percent Effect read: -7.257

Assay Trypanosoma brucei, sample Cc1cnn(C2CN(Cc3nnc(C4CC4)o3)C2)c1 , Percent Effect read: 93.44

Assay Trypanosoma brucei, sample C1CCCN(CC2CCCN(Cc3noc(C4CC4)n3)C2)CC1 (stereo not given) , Percent Effect read: 63.76

Assay Trypanosoma brucei, sample Cc1ccc(CN(CCCN(C)C)Cc2cnc(C)n2C)o1.O=C(O)CC(O)(CC(=O)O)C(=O)O , Percent Effect read: -2.378

Assay Trypanosoma brucei, sample CN(C)CCNC(=O)C1Cc2nc(-c3ccsc3)sc2N1CC1CC1.O=C(O)C(F)(F)F (stereo not given) , Percent Effect read: 5.041

Turning now to a further molecule:
Assay Trypanosoma brucei, sample COCC(=O)N1CCCC1c1csc(Nc2cnccn2)n1 (stereo not given) , Percent Effect read: 22.69

* * *

system: Trypanosoma brucei; experiment: Trypanosoma brucei 72 hour study; assay type: functional, organism-based; design: scale not given: in the data most compounds retested in dose-response had high values; settings: 30 µM; 30.03 µM
Among all 66,000 compounds or so, about 960 (1.5%) showed an effect of 50% or more. Many of the other results were omitted from the sample, so strong results are more common in it than they were.
recorded_metric: Percent Effect (%)
Only the number, expressed in %, is required.

For record CCOc1ccccc1C(N)CC(C)C (centres undefined) the listed Percent Effect is -21.09

For record COc1ccccc1CNC(=O)N1CCCC(CO)C1 (centres undefined) the listed Percent Effect is -45.66

* * *

# Lookup of reported Percent Effect keyed by entry
tested on: Trypanosoma brucei; test: Trypanosoma brucei 72 hour study; format: functional, organism-based; parameters: scale not given: in the data most compounds retested in dose-response had high values; conditions: 30.3 µM; […]
Out of some 66,000 compounds screened, about 960 (1.5%) showed an effect of 50% or more. The entries come from a sample that favours strong results as a whole.
Only the number, expressed in %, is required.

Here's what some known entries look like.
Assay Trypanosoma brucei, sample Cc1ccoc1-c1nnc(CN2CCn3c(C)nnc3C2)o1 , Percent Effect read: -3.504

Assay Trypanosoma brucei, sample CC(C)OCCCN(Cc1ccncc1)Cc1cc(F)ccc1F.Cl , Percent Effect read: -3.291

Assay Trypanosoma brucei, sample CCNc1cc2c(nn1)CCN(C(=O)c1cc3cccc(C)c3o1)C2 , Percent Effect read: 29.79

Turning now to a further compound:
Assay Trypanosoma brucei, sample Cc1ccc(CN2CCC3(CC2)CC(N2CCN(C)CC2)CO3)s1.O=C(O)C(F)(F)F.O=C(O)C(F)(F)F.O=C(O)C(F)(F)F (centres undefined) , Percent Effect read: -296.4

* * *

system: Trypanosoma brucei; assay: Trypanosoma brucei 72 hour study; assay type: functional, organism-based; parameters: scale not given: in the data most compounds retested in dose-response had high values; conditions: 10 mM as filed; unlikely as a test dose
The campaign covered roughly 66,000 compounds. About 960 (1.5%) showed an effect of 50% or more. This excerpt belongs to a sample that is enriched for strong results.
Note to self: Percent Effect under -40% means Criterion met, ties and anything higher get Criterion not met.

Problem: For the compound CC(C)c1cc(NC(=O)c2ccc([S+]([O-])C(C)C)cc2)[nH]n1 (stereo not drawn) , is Percent Effect under -40%?
Criterion not met

Problem: For the compound CC(=O)N1N=C(c2ccccc2)OC1C(=O)NCCc1ccc(C)cc1 (stereo not drawn) , is Percent Effect under -40%?
Criterion met

Problem: For the compound CC(=O)N1N=C(c2ccccc2)OC1C(=O)NCCc1ccc(Cl)cc1 (stereo not drawn) , is Percent Effect under -40%?
Criterion not met

Problem: For the compound N#CCc1cccc(C(=O)N2CCN(CC(O)c3ccccc3)CC2)c1 (stereo not drawn) , is Percent Effect under -40%?
Criterion not met

Problem: For the compound CNS(=O)(=O)Cc1ccc(CNC(=O)c2ccccn2)cc1 , is Percent Effect under -40%?
Criterion not met

Next:
Problem: For the compound CC(C)c1n[nH]c(C(=O)Nc2ccccn2)c1Br , is Percent Effect under -40%?
Criterion met

Problem: For the compound COc1ccc2c(c1)OC1(CCN(Cc3ccccc3C)CC1)CC2=O , is Percent Effect under -40%?
Criterion met

Problem: For the compound CC(C)c1cc(NC(=O)c2cccnc2)[nH]n1 , is Percent Effect under -40%?
Criterion not met

Problem: For the compound CN1CCOC(CNCc2ccc(OCc3ccccn3)cc2)C1 (stereo not drawn) , is Percent Effect under -40%?
Criterion not met

Problem: For the compound CN1CCOC(CNCc2coc(-c3cccc(F)c3)n2)C1 (stereo not drawn) , is Percent Effect under -40%?
Criterion not met

Problem: For the compound Cc1ccc(-c2nc(CNCC3CN(C)CCO3)co2)cc1 (stereo not drawn) , is Percent Effect under -40%?
Criterion not met

Problem: For the compound CC(C)c1n[nH]c(C(=O)NC(C)c2ccncc2)c1Br (stereo not drawn) , is Percent Effect under -40%?
Criterion met

* * *

tested on: Trypanosoma brucei; assay: Trypanosoma brucei 72 hour study; assay type: functional, organism-based; set-up: scale not given: in the data most compounds retested in dose-response had high values; details: 30 µM; 30.03 µM
Among all 66,000 compounds or so, about 960 (1.5%) showed an effect of 50% or more. The entries come from a sample that favours strong results as a whole.
recorded_metric: Percent Effect (%)
Only the number, expressed in %, is required.

Here's what some known entries look like.
For record Cn1nnc2c1CCN(CC1CC1)C2COCc1ccccc1.O=C(O)C(F)(F)F (centres undefined) the listed Percent Effect is 17.54

For record CN(C)C[C@]12COC[C@H]1CN(C(=O)Cc1ccc3c(c1)OCO3)C2.O=C(O)C(F)(F)F the listed Percent Effect is 24.04

For record N[C@H]1CN(C(=O)CCCc2ccc(F)cc2)C[C@@H]1C1CC1 the listed Percent Effect is 79.67

For record CSc1ccc(C(=O)N2CCCC(Nc3ccc(F)cc3)C2)cc1 (centres undefined) the listed Percent Effect is 63.86

For record Cc1ccc(C(=O)N2CCCC(Nc3ccc(F)cc3)C2)cc1 (centres undefined) the listed Percent Effect is -28.83

Next:
For record O=C(O)[C@@H]1CN(C(=O)CCCc2ccc(F)cc2)C[C@H]1C1CC1 the listed Percent Effect is -8.475

For record O=C(C[C@@H]1COC[C@H]2CN(C(=O)c3ccccn3)C[C@@H]12)N1CCCC1.O=C(O)C(F)(F)F the listed Percent Effect is -14.99

For record CCN(CC)c1nc(Nc2cccc(C(C)O)c2)nc2ccccc12 (centres undefined) the listed Percent Effect is 78.38

For record Cc1nc(-c2cc(C(=O)NCCN3CCOCC3)c3ccccn23)cs1.O=C(O)C(F)(F)F the listed Percent Effect is -1.462
